Reference for the values: patent US20170355774A1

measurement.target: T1, human GITR (amino acids M1-V241, NCBI Accession #NP_004186.1) expressed on cells (human, UniProt Q9Y5U5 26-241)
T1 sequence: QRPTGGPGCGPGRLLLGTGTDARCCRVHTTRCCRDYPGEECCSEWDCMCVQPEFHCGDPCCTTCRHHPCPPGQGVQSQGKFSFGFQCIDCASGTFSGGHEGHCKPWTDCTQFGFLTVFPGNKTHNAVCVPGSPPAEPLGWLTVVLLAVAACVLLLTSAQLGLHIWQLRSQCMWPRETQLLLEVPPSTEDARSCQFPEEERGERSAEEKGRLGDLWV
method.summary: cell-based or functional assay
Quick reference: fold activation, T-cell proliferation, 33 nM, FcgR anchored, donor 3 of the listed items.
property: fold activation, T-cell proliferation, 33 nM, FcgR anchored, donor 3 (fold)

{"binder": "H4H14476P (antibody, human IgG4, V domains shown, human IgG4 (H4H)) VH: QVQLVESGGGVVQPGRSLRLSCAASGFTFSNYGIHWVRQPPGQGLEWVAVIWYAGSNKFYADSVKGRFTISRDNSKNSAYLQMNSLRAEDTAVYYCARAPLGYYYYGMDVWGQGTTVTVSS VL: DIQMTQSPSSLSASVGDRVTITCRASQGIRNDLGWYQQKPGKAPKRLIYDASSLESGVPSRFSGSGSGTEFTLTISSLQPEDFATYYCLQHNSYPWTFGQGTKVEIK", "endpoint.value": 0.8}
{"binder": "H4H14528P (antibody, human IgG4, V domains shown, human IgG4 (H4H)) VH: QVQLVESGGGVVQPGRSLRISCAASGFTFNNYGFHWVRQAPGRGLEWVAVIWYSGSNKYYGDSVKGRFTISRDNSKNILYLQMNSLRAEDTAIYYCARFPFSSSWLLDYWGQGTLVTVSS VL: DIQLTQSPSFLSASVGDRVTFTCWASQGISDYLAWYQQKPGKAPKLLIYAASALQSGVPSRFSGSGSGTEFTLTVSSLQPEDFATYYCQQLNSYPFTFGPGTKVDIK", "endpoint.value": 1.1}
{"binder": "H4H14469P (antibody, human IgG4, V domains shown, human IgG4 (H4H)) VH: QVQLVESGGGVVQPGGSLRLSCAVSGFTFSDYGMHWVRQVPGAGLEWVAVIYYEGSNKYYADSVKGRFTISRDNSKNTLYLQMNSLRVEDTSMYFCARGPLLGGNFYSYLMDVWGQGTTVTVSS VL: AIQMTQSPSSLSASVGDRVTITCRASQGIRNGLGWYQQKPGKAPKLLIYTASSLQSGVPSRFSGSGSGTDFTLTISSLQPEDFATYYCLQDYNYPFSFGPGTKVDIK", "endpoint.value": 0.9}
